Test system: Proteus mirabilis C977
Test: MIC in agar
Assay type: cell-based
Conditions: in agar; Proteus mirabilis C977; read-out: M.I.C.
Text: a. Antibacterial effectiveness of compounds of Examples 6 and 7 in agar. (μg/ml) in agar of compound
Measurement Name: MIC
Quick note: number first, unit second.

Reference set (3 entries):
compound="C[C@H](O)[C@@H]1C(=O)N2C(C(=O)O)=C(S/C=C\\C(=O)OCCN)C[C@H]12 [Example 20]" measurement_name=MIC recorded_value="0.4 µg/mL"
compound="C[C@H](O)[C@H]1C(=O)N2C(C(=O)O)=C(S/C=C\\C(=O)OCCN)C[C@H]12 [Example 18]" measurement_name=MIC recorded_value="12.5 µg/mL"
compound="C[C@H](OS(=O)(=O)O)[C@@H]1C(=O)N2C(C(=O)O)=C(S/C=C\\C(=O)O)C[C@H]12 [Example 22]" measurement_name=MIC recorded_value="1.2 µg/mL"

Here is the next item to consider.
Would you kindly share the measured MIC for C[C@H](O)[C@@H]1C(=O)N2C(C(=O)O)=C(S/C=C\C(=O)O)C[C@H]12 [Example 24] ?
0.5 µg/mL

###

Record form. Attribute: log10 MIC. Fill in for each entry.
system: Shigella sonnei MB 11967; test: MIC in agar; assay type: cell-based; conditions: MB11967
log10 MIC, µg/mL

chemical_smiles=C[C@H](O)[C@H]1C(=O)N2C(C(=O)O)=C(S/C=C\C(=O)OCCN)C[C@H]12 recorded_value=0.49
chemical_smiles=C[C@H](O)[C@@H]1C(=O)N2C(C(=O)O)=C(S/C=C\C(=O)O)C[C@H]12 recorded_value=-0.30
chemical_smiles=C[C@H](OS(=O)(=O)O)[C@@H]1C(=O)N2C(C(=O)O)=C(S/C=C\C(=O)O)C[C@H]12 recorded_value=0.08
chemical_smiles=CSC1=C(C(=O)[O-])N2C(=O)[C@H]([C@H](C)O)[C@H]2C1.[Na+] recorded_value=1.10

# log10 MIC lookup, item C[C@H](O)[C@@H]1C(=O)N2C(C(=O)O)=C(S/C=C\C(=O)OCCN)C[C@H]12
-0.70
